# IC50 listing for each entry below
- SYSTEM_TESTED: Serum paraoxonase/arylesterase 1 (Homo sapiens)
- Sequence (P27169 whole entry): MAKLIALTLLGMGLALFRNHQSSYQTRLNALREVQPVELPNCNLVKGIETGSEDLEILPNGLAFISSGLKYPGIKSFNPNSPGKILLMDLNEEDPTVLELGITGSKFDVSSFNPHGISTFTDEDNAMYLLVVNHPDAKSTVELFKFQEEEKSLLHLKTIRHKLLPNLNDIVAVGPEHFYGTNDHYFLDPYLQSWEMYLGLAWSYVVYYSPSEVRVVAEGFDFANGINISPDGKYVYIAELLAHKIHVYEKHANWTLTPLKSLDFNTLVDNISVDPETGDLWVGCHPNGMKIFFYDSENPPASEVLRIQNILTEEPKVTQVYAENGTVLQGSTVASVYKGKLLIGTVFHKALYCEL
- PROCEDURE_SUMMARY: Inhibition of human serum PON1 using paraoxon as substrate by spectrophotometric analysis
- CONDITION_DETAILS: read-out: IC50
Return type: number; implicit unit µM.

TEST_SMILES: CC(C)(C)c1ccc2oc(=O)cc(C[n+]3cn(Cn4nnc5ccccc54)c4ccccc43)c2c1
SYSTEM_TESTED: Serum paraoxonase/arylesterase 1 (Homo sapiens)
ASSAY_READOUT: IC50
UNIT_LABEL: µM
EXPERIMENTAL_VALUE: 627

TEST_SMILES: CCCCn1cc[n+](Cc2nc3ccccc3[nH]2)c1
SYSTEM_TESTED: Serum paraoxonase/arylesterase 1 (Homo sapiens)
ASSAY_READOUT: IC50
UNIT_LABEL: µM
EXPERIMENTAL_VALUE: 29

TEST_SMILES: c1ccc2c(c1)ncn2Cn1nnc2ccccc21
SYSTEM_TESTED: Serum paraoxonase/arylesterase 1 (Homo sapiens)
ASSAY_READOUT: IC50
UNIT_LABEL: µM
EXPERIMENTAL_VALUE: 564

TEST_SMILES: Cc1ccc2c(C[n+]3cn(Cn4nnc5ccccc54)c4ccccc43)cc(=O)oc2c1C
SYSTEM_TESTED: Serum paraoxonase/arylesterase 1 (Homo sapiens)
ASSAY_READOUT: IC50
UNIT_LABEL: µM
EXPERIMENTAL_VALUE: 237

Exercise: // returns reported IC50 for input CC(C)(C)c1ccc2oc(=O)cc(CCl)c2c1
Key: 40

Exercise: Also need Cc1ccc(-c2cc3cc(O)c(O)cc3oc2=O)cc1 , thanks.
Key: 3

Exercise: Also need CCCC[n+]1cn(Cn2nnc3ccccc32)c2ccccc21 , thanks.
Key: 3330

Exercise: Also need Cc1n(C)cc[n+]1Cc1nc2ccccc2[nH]1 , thanks.
Key: 626

Exercise: Also need c1ccc(C[n+]2cn(Cn3nnc4ccccc43)c3ccccc32)cc1 , thanks.
Key: 2060

Exercise: Also need CCCCn1cc[n+](Cc2cc(=O)oc3cc(C)cc(C)c23)c1 , thanks.
Key: 6.37

Exercise: Also need Cc1ccc2c(CCl)cc(=O)oc2c1C , thanks.
Key: 21.4

Exercise: Also need Cc1cc(C)c2c(CCl)cc(=O)oc2c1 , thanks.
Key: 31.4

====

# IC50 listing for each entry below
- SYSTEM_TESTED: Serum paraoxonase/arylesterase 1 (Homo sapiens)
- PROCEDURE_SUMMARY: Inhibition of human serum PON1 using paraoxon as substrate by spectrophotometric analysis
- CONDITION_DETAILS: read-out: IC50
Return type: number; implicit unit µM.

TEST_SMILES: Cc1cc(C)c2c(C[n+]3ccn(C)c3C)cc(=O)oc2c1
IC50 [µM]: 317

TEST_SMILES: Cc1cc(C)c2c(C[n+]3ccn(C)c3)cc(=O)oc2c1
IC50 [µM]: 23.7

TEST_SMILES: Cn1cc[n+](Cc2nc3ccccc3[nH]2)c1
IC50 [µM]: 19

Exercise: // returns reported IC50 for input O=C1COc2ccc(C(=O)C[n+]3cn(Cn4nnc5ccccc54)c4ccccc43)cc2N1
Key: 8.76

Hello, the source for this data is ChEMBL document CHEMBL3758119, in case you need it.
